biological target: RSV F protein of subtype B (18537) on recombinant mKate-RSV (respiratory syncytial virus subtype B …, UniProt P13843 26-574); assay: cell-based or functional assay
As shown below, each of these binders has a reported Neut IC50 subtype B value.
Just the number in µg/mL, nothing appended.

Consider the worked cases shown below.
BINDER	UNITS_OF_MEASURE	Neut IC50 subtype B
ADI-19003 (antibody, V domains shown) VH: QVQLQESGPGLVKPSETLSLTCSVSGGSITNVNYYWGWIRQPPGKGLEWIGSIYYNGNTYYNPSLQSRVTMSVDTSKNHFSLRLTSVTAADTAVYFCAREGPNWELLNAFDIWGQGTTVTVSS VL: SYELTQPPSVSVAPGQTARITCGGNNIGSKNVHWYQQKPGQAPVLVVYEDTHRPSGIPERFSGSNSGNTATLTISRVEAGDEADYYCQVWDTSSDHVVFGGGTKLTVL	µg/mL	0.125
ADI-19017 (antibody, V domains shown) VH: QVQLVQSGAEVKKPGASVRVTCKASGYTFTDYFMNWVRQAPGGGLEWMGWINPLSGVTKYAQQFQGSVTMTTDTSITTGYMELRSLRVDDTAVYYCASQSSPYTPGAMGVWGQGTTVTVSS VL: SYELIQLPSVSVSPGQTARITCSGDALPKQYAYWYQQKPGQAPVLVIYKDSERPSGIPERFSGSSSGTTVTLTISGVQAEDEADYYCQSADSSGTYPVVFGGGTKLTVL	µg/mL	0.795

Attention now shifts to the item below.
Query :: Which Neut IC50 subtype B is listed for ADI-19006 (antibody, V domains shown) VH: EVQLVESGGGLVKPGESVKLSCAASGFTITDSYMAWIRQSPGKGLEWLAYISSTSLFTDYTDSVKGRFIITRDNAENSLYLQMTSLTPADTGVYFCARAKTSYYFYALDVWGPGTLVTVSS VL: ETTLTQSPGTLSLSPGERATLSCRASQSVNNNYLAWFQHKPGQAPRLLIYNASNRAAGIPDRFSGSGSGTDFTLTISKLEPGDSAVYYCQRYGNSWPFGQGTKVEIK ?
Result :: 5.06
